System: Leishmania infantum
runDescription: microbe, parasite or virus in culture
measurementParameters: MHOM/MA(BE)/67/ITMAP263, in Mus musculus, 120 h
Description: Antileishmanial activity against amastigote stage of Leishmania infantum MHOM/MA(BE)/67/ITMAP263 infected in mouse peritoneal macrophage assessed as parasite growth inhibition incubated for 5 days by Giemsa staining based assay
assayReadout: IC90 (µM)
Answers are plain numbers, in µM.

// solved cases for IC90 follow
For the compound shown here, CCC(=O)N1CCCC(c2nc3ncc(Cl)cc3[nH]2)C1 (stereo unspecified) , give the reported IC90.
64

For the compound shown here, O=C(c1cc(C2CC2)on1)N1CCCC(c2cc3ncccc3[nH]2)C1 (stereo unspecified) , give the reported IC90.
32

For the compound shown here, Nc1cc(C2CCCN(C(=O)c3ccccc3)C2)[nH]n1 (stereo unspecified) , give the reported IC90.
64

For the compound shown here, O=C(c1ccc(F)cc1)N1CCCC(c2cc3nc(C(F)(F)F)ccc3[nH]2)C1 (stereo unspecified) , give the reported IC90.
64

For the compound shown here, O=C(c1ccc(F)cc1)N1CCCC(c2cc3nc(Cl)ccc3[nH]2)C1 (stereo unspecified) , give the reported IC90.
64

For the compound shown here, OC1(c2cc3ncccc3[nH]2)CCN(Cc2ccccc2)CC1 , give the reported IC90.
64

For the compound shown here, COc1ccc2[nH]c(C3CCCN(C(=O)c4ccc(F)cc4)C3)cc2n1 (stereo unspecified) , give the reported IC90.
64

For the compound shown here, O=C(c1cc(C(F)(F)F)no1)N1CCC(c2cc3ncccc3[nH]2)C1 (stereo unspecified) , give the reported IC90.
64

For the compound shown here, O=C(Nc1ccc(-c2cc3ncccc3[nH]2)cc1)c1ccccc1 , give the reported IC90.
60.5

For the compound shown here, Nc1cc(C2CCCN(C(=O)c3cc(C(F)(F)F)no3)C2)[nH]n1 (stereo unspecified) , give the reported IC90.
64

New cases:
For the compound shown here, O=C(c1ccccc1)N1C=C(c2cc3ncccc3[nH]2)CCC1 , give the reported IC90.
64
